This collection of values is drawn from the supplement of paper PMC11208160.

assay: recombinant barcode read abundance after kanamycin selection (control-corrected) (log10(CPM+1)); higher = more efficient recombination; sequences stand for … in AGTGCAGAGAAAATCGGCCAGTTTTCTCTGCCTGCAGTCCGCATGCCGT…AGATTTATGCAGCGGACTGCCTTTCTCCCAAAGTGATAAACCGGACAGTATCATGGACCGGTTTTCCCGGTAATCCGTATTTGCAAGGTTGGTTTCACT; site = the 11-nt target
Note that class boundaries on recombinant barcode read abundance (log10) are b0 (below 0.2), b1 (0.2 to below 0.4), b2 (0.4 or more)

| Input Sequence | Label |
| --- | --- |
| TATGGTTCTTGGGTTCTAACCTGTTGCCT (site TATGCTTCTAA) | b0 |
| CACTTGGCTTGGGTTCTAACCTGTTGCCT (site CACTTGTCTAG) | b0 |
| GGGCATCCTTGGGTTCTAACCTGTTGCTT (site GGGCATCCTAA) | b2 |
| TATTGGACTTGGGTTCTAACCTGTTGCAT (site TATTGGACTAT) | b2 |
| CTGTCGCCTTGGGTTCTAACCTGTTGCCT (site CTCTCGCCTAG) | b0 |
| CCGCCTGCTTGGGTTCTAACCTGTTGCCT (site CCGCCAGCTAG) | b1 |
| ATGCGAGCTTGGGTTCTAACCTGTTGCCG (site ATGCGAGCTCC) | b1 |
| CCACTGCCTTGGGTTCTAACCTGTTGCCT (site CCACTCCCTAG) | b1 |
| GCAGCGACTTGGGTTCTAACCTGTTGCCT (site GCAGCGACTAG) | b2 |
| AAATGGTCTTGGGTTCTAACCTGTTGCTA (site AAACGGTCTTA) | b2 |

* * *

assay: recombinant UMI read abundance after kanamycin selection (control-corrected) (log10(CPM+1)); higher = more efficient recombination; extreme values may be limits of the assay; sequences stand for … in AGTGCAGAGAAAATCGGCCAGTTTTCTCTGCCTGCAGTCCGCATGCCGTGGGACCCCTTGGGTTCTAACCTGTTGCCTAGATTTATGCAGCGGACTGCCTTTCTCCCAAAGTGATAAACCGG…AGGTTGGTTTCACT; site = the 11-nt donor
Let's look at some sequences and their measured recombinant UMI read abundance (log10).

| Input Sequence | recombinant UMI read abundance (log10) |
| --- | --- |
| CGTCTATCATGGACCGGTTTTCCCGGTAATCCGTATTTGAT (site CGTCTATCTAT) | 0 |
| GCATGGGCATGGACCGGTTTTCCCGGTAATCCGTATTTGAG (site GCATGGGCTCT) | 1.33 |
| ACATGAACATGGACCGGTTTTCCCGGTAATCCGTATTTGTC (site ACACGAACTGA) | 0.197 |
| CCCTGCTCATGGACCGGTTTTCCCGGTAATCCGTATTTGGG (site CCCTGCTCTCC) | 0.409 |
| GTTAGCACATGGACCGGTTTTCCCGGTAATCCGTATTTGGC (site GTTAGTACTGC) | 0 |
| AAGTACGCATGGACCGGTTTTCCCGGTAATCCGTATTTGGG (site AAGTACGCTCC) | 0.423 |
| ACCACGCCATGGACCGGTTTTCCCGGTAATCCGTATTTGTA (site GCCACGCCTTA) | 0.00875 |
| CAGGCGCCATGGACCGGTTTTCCCGGTAATCCGTATTTGTG (site CATGCGCCTCA) | 0.0319 |
| TATGTGGCATGGACCGGTTTTCCCGGTAATCCGTATTTGTG (site TATCTGGCTCA) | 0.0111 |
| AATTATCCATGGACCGGTTTTCCCGGTAATCCGTATTTGCT (site TATTATCCTAG) | 0.201 |
| ACTGGGACATGGACCGGTTTTCCCGGTAATCCGTATTTGAG (site ACTGGGACTCT) | 1.39 |
| CTTCCCTCATGGACCGGTTTTCCCGGTAATCCGTATTTGTA (site CTTCTCTCTTA) | 0.434 |
| ATCAAAGCATGGACCGGTTTTCCCGGTAATCCGTATTTGAG (site ATCAAAGCTCT) | 2.17 |
| AGGAGGACATGGACCGGTTTTCCCGGTAATCCGTATTTGAA (site AGGAAGACTTG) | 0 |
| CCGTTAACATGGACCGGTTTTCCCGGTAATCCGTATTTGCT (site CCGTTTACTAG) | 0 |
| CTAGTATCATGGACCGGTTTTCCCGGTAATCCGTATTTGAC (site CTAATATCTCT) | 0.764 |
| ATTTACACATGGACCGGTTTTCCCGGTAATCCGTATTTGTT (site ATTTACACTAA) | 0.967 |
| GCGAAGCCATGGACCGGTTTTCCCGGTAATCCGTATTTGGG (site GAGAAGCCTCC) | 0.00349 |
